# targetUnderTest: Fes (UniProt P07332)
# Sequence (P07332 whole entry, looked up): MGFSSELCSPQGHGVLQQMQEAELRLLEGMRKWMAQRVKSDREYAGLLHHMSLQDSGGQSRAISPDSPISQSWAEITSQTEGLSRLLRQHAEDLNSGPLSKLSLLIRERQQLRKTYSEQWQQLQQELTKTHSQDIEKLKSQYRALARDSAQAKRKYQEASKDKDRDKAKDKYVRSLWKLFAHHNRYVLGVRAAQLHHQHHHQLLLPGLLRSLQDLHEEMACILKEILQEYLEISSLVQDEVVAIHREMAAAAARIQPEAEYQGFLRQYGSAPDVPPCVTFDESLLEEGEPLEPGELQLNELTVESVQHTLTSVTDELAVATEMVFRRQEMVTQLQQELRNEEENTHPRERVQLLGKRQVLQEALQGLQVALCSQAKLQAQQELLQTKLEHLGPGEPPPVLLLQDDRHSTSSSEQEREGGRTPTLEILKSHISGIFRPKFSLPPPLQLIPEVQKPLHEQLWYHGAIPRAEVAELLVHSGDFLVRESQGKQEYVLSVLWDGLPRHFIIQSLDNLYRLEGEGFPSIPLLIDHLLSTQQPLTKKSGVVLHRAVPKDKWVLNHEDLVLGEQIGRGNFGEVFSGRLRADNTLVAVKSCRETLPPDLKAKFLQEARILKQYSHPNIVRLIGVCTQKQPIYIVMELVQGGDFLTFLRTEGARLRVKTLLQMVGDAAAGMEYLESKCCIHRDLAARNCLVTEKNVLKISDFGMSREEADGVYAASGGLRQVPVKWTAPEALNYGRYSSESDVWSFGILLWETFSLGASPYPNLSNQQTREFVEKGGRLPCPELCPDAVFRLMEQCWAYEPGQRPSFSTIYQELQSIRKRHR
# assayInfo: phosphorylation enrichment, bacterial display (enrichment ratio); higher = better substrate or ligand; peptides without Tyr show the background
assayMetric: phosphorylation enrichment

[[record]]
sequencetext = "NQILPYIKELV [PPP2R1B_Y341]"
targetundertest = "Fes (UniProt P07332)"
recordedvalue = 1.14

[[record]]
sequencetext = "VCHELYNAIRD [PBRM1_Y54_T56A]"
targetundertest = "Fes (UniProt P07332)"
recordedvalue = 0.933

[[record]]
sequencetext = "TVFENYVADIK [RHOA_Y42_E47K]"
targetundertest = "Fes (UniProt P07332)"
recordedvalue = 0.878

[[record]]
sequencetext = "EYKDAYTFAAD [BRDT_Y335_K336T]"
targetundertest = "Fes (UniProt P07332)"
recordedvalue = 1.09

[[record]]
sequencetext = "MSRDVYSIDYY [NTRK2_Y702_T704I]"
targetundertest = "Fes (UniProt P07332)"
recordedvalue = 0.9


----------
# targetUnderTest: SHP2-C SH2
# assayInfo: SH2 binding enrichment of the phosphorylated peptide, bacterial display (enrichment ratio); higher = better substrate or ligand; peptides without Tyr show the background
Mark f for SH2 binding enrichment values under 0.7, and t for everything at or above.

[[record]]
sequencetext = "LSQAKYQIRYR [CRLF1_Y272_F268S]"
targetundertest = "SHP2-C SH2"
class = "f"

[[record]]
sequencetext = "EEKKKYFDAKI [CASP5_Y103_T106A_YF]"
targetundertest = "SHP2-C SH2"
class = "f"

[[record]]
sequencetext = "ILTLKYPIEHG [ACTA1_Y71]"
targetundertest = "SHP2-C SH2"
class = "t"

[[record]]
sequencetext = "VVQGLYKSMPK [KBTBD2_Y250]"
targetundertest = "SHP2-C SH2"
class = "t"


----------
# targetUnderTest: EPHB2 (UniProt P29323)
# Sequence (P29323 whole entry, looked up): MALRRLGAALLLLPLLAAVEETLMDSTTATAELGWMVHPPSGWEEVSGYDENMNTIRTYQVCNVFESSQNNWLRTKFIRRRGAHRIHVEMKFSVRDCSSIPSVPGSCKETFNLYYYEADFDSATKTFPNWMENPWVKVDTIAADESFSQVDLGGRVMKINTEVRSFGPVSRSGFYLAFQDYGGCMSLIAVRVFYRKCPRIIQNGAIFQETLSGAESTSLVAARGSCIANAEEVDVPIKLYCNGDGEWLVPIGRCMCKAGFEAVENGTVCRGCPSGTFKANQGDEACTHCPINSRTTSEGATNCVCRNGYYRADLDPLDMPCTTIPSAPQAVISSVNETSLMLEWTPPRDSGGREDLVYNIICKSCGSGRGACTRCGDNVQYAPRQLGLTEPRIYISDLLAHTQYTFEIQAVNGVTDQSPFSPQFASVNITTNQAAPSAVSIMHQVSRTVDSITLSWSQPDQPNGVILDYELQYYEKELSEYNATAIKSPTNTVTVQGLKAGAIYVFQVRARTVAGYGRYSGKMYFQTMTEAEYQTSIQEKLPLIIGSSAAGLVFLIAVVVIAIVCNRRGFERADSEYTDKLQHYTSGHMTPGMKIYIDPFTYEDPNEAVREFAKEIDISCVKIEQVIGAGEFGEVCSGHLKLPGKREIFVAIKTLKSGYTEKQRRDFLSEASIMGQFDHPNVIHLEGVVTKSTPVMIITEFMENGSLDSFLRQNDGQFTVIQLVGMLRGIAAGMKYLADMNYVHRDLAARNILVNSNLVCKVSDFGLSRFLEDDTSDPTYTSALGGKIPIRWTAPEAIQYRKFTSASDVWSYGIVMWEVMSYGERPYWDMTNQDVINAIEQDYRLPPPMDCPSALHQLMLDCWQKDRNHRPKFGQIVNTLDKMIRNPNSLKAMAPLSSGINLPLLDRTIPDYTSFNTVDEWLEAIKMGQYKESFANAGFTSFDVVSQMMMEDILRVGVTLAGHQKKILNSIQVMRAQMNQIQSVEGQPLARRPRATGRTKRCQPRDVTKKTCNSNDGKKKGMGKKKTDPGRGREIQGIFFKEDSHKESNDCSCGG
# assayInfo: phosphorylation enrichment, bacterial display (enrichment ratio); higher = better substrate or ligand; peptides without Tyr show the background
Kind request: treat 0.6 as inclusive, so phosphorylation enrichment at 0.6 or higher is 1 (yes), anything lower is 0 (no).

[[record]]
sequencetext = "APEVIYATPGA [ABLtide_2014]"
class = "1 (yes)"

[[record]]
sequencetext = "EVVGGYSVHNA [MLH1_Y183_R182G]"
class = "0 (no)"

[[record]]
sequencetext = "DDPRTYQKFGF [OAS1_Y362_R361T_YF]"
class = "0 (no)"

[[record]]
sequencetext = "TVFENYVADIK [RHOA_Y42_E47K]"
class = "1 (yes)"

[[record]]
sequencetext = "LRYDVYGGENE [STOX1_Y610_E608D]"
class = "1 (yes)"

[[record]]
sequencetext = "PLFSKYWPNHI [GREB1L_Y1560_R1558S_YF]"
class = "1 (yes)"

[[record]]
sequencetext = "LLGFLYFFVCS [SLC34A2_Y109]"
class = "1 (yes)"

[[record]]
sequencetext = "SGGLDYGMVGG [TNRC6B_Y1382_M1380L]"
class = "1 (yes)"

[[record]]
sequencetext = "LNWIYYKDQTG [RS1_Y166]"
class = "1 (yes)"

[[record]]
sequencetext = "IAKNPYDPPGR"
class = "0 (no)"

[[record]]
sequencetext = "RRGMPYGGCGD [TGM1_Y312_R315C]"
class = "0 (no)"

[[record]]
sequencetext = "VHKKGYNKLNQ [ZNF676_Y98_E96K]"
class = "0 (no)"

[[record]]
sequencetext = "MSSHHYDFKKF [ZNF445_Y428_YF]"
class = "0 (no)"

[[record]]
sequencetext = "PEADKYCLTFA [FGG_Y300_R301C_YF]"
class = "1 (yes)"

[[record]]
sequencetext = "TDKLFYIYTSG [SLC27A4_Y243]"
class = "1 (yes)"

[[record]]
sequencetext = "NNIDFYKNTTN [FGFR2_Y657_K659N_YF]"
class = "0 (no)"

[[record]]
sequencetext = "ALECLYRREKR [TEKT5_Y195_H196R]"
class = "0 (no)"

[[record]]
sequencetext = "EESSHYSTEKE [ADAR_Y587]"
class = "0 (no)"

[[record]]
sequencetext = "TNGFTYGSSHQ [MANEA_Y331]"
class = "0 (no)"

[[record]]
sequencetext = "KVKGEYDMTVP [AHNAK_Y964]"
class = "0 (no)"

[[record]]
sequencetext = "ITVPAYFNDLQ [HSPA9_Y196_S200L]"
class = "0 (no)"


----------
Each record here notes measured phosphorylation enrichment.
# Test system: c-Src
# assayInfo: phosphorylation enrichment, bacterial display (enrichment ratio); higher = better substrate or ligand; peptides without Tyr show the background
assayMetric: phosphorylation enrichment

[[record]]
sequencetext = "TARREYMHSPS [CPOX_Y429_W427R]"
targetundertest = "c-Src"
recordedvalue = 0.432

[[record]]
sequencetext = "CHKRTYKVTGL"
targetundertest = "c-Src"
recordedvalue = 0.455

[[record]]
sequencetext = "STLEVYRCHPP [IL21R_Y317_S318R]"
targetundertest = "c-Src"
recordedvalue = 0.497

[[record]]
sequencetext = "PAIYTYDEYKK [COL8A2_Y648_T645I]"
targetundertest = "c-Src"
recordedvalue = 9.14

[[record]]
sequencetext = "QDIMAYRGREV [BCL6_Y157]"
targetundertest = "c-Src"
recordedvalue = 0.531

[[record]]
sequencetext = "LRWREYQRQDF [PRKRIP1_Y90_R87W_YF]"
targetundertest = "c-Src"
recordedvalue = 2.67


----------
# Test system: AncSZ
# assayInfo: phosphorylation enrichment, bacterial display (enrichment ratio); higher = better substrate or ligand; peptides without Tyr show the background
assayMetric: phosphorylation enrichment

[[record]]
sequencetext = "DLRGIYQKLVI"
recordedvalue = 0.826

[[record]]
sequencetext = "VERRVYAEDPF [PCCA_Y401_C398R_YF]"
recordedvalue = 0.722

[[record]]
sequencetext = "VTQEQYELFCE [CBL_Y368_YF]"
recordedvalue = 1.4


----------
# targetUnderTest: c-Src SH2
# assayInfo: SH2 binding enrichment of the phosphorylated peptide, bacterial display (enrichment ratio); higher = better substrate or ligand; peptides without Tyr show the background
Respond with criterion met for SH2 binding enrichment values of 0.6 and above, criterion not met for values below.

[[record]]
sequencetext = "PEFVVYKPQME [CCRL2_Y170]"
class = "criterion met"

[[record]]
sequencetext = "EESSHYSTEKE [ADAR_Y587]"
class = "criterion not met"

[[record]]
sequencetext = "TRDVNYGWIIR [MT-CYB_Y75]"
class = "criterion not met"

[[record]]
sequencetext = "PEADKYCLTFA [FGG_Y300_R301C_YF]"
class = "criterion not met"

[[record]]
sequencetext = "ECKLLYSQKEG [PTPN11_Y263_R265Q]"
class = "criterion not met"

[[record]]
sequencetext = "VDYQPYRKHKY [TEX37_Y28]"
class = "criterion met"

[[record]]
sequencetext = "GVVVPYEPPEV [TP53_Y220_S215G]"
class = "criterion not met"

[[record]]
sequencetext = "CASQLYPRHKH [DCTN4_Y263]"
class = "criterion met"

[[record]]
sequencetext = "ITRDIYETDFF [INSR_Y1185_M1180I_YF]"
class = "criterion met"

[[record]]
sequencetext = "PVDVAYRRGYF [PLEC_Y2967]"
class = "criterion not met"

[[record]]
sequencetext = "KYVKMYDNHQL [MYO9A_Y203]"
class = "criterion met"

[[record]]
sequencetext = "RRSQSYIPTSG [PLEKHA2_Y185]"
class = "criterion not met"

[[record]]
sequencetext = "RRFSSYSQMEN [PKP1_Y120]"
class = "criterion not met"

[[record]]
sequencetext = "SGGLDYGMVGG [TNRC6B_Y1382_M1380L]"
class = "criterion not met"


----------
# Test system: c-Src
# assayInfo: phosphorylation enrichment, bacterial display (enrichment ratio); higher = better substrate or ligand; peptides without Tyr show the background
# label = Y if phosphorylation enrichment >= 0.6 else N

[[record]]
sequencetext = "LFLALYTGLVR [PIGB_Y402_H407R]"
class = "Y"

[[record]]
sequencetext = "NFFEFYVDDPP [GCHFR_Y48_YF]"
class = "N"

[[record]]
sequencetext = "TGDRPYVCPFD [YY1_Y383]"
class = "N"

[[record]]
sequencetext = "GEFHVYRHLRW [PRKRIP1_Y82_R87W]"
class = "N"

[[record]]
sequencetext = "VVFIKYLPEWT [PSEN1_Y240_L235V]"
class = "N"

[[record]]
sequencetext = "QGIYGYHHYMQ [UFSP2_Y287]"
class = "Y"

[[record]]
sequencetext = "LIQRNYKLAAQ [ALPK2_Y1975]"
class = "N"

[[record]]
sequencetext = "KHMADYPDYKY [SOX11_Y113]"
class = "N"

[[record]]
sequencetext = "IGVDSYSVCKR [RPS6KA3_Y433_G431D]"
class = "N"

[[record]]
sequencetext = "DMLYQYLKQIE [RPAP3_Y569]"
class = "Y"

[[record]]
sequencetext = "IVRSLYEDVED [VHL_Y185_L188V]"
class = "N"

[[record]]
sequencetext = "SIKNKYVTALY [KCNH2_Y611_D609N]"
class = "N"

[[record]]
sequencetext = "LQLLGHRPVYS [CHST6_Y358_Y358H]"
class = "N"

[[record]]
sequencetext = "SNMPTYSGHFS [GRIN2A_Y1224_T1229S]"
class = "Y"

[[record]]
sequencetext = "KQLFAYKMLMA [TMC2_Y209_YF]"
class = "N"

[[record]]
sequencetext = "VEKGSYSALLA [ABCC2_Y845]"
class = "N"

[[record]]
sequencetext = "TDKLFYIYTSG [SLC27A4_Y243]"
class = "N"

[[record]]
sequencetext = "LEHCQYVTEKV [ALDOB_Y204]"
class = "Y"

[[record]]
sequencetext = "LEDDVYRKTCT [XPA_Y257_M256V]"
class = "Y"

[[record]]
sequencetext = "CETMEYLESKQ [BTK_Y511_A508T]"
class = "N"

[[record]]
sequencetext = "ALTDNYMFVVI [HAGH_Y61_L64V_YF]"
class = "N"

[[record]]
sequencetext = "RFLERDIYNRE [HLA-DPB1_Y57_Y57D]"
class = "Y"

[[record]]
sequencetext = "CASQLYPRHKH [DCTN4_Y263]"
class = "N"

[[record]]
sequencetext = "ALCHFYKLNII [ETV6_Y402_R399C_YF]"
class = "N"

[[record]]
sequencetext = "TTGGFYSFGGG [KRT24_Y120_A115T_YF]"
class = "Y"

[[record]]
sequencetext = "RRLEPYGENFN [APOA4_Y310_V307L]"
class = "N"

[[record]]
sequencetext = "DQIDTYELSGA [DNM1_Y354_G359A]"
class = "Y"

[[record]]
sequencetext = "GFEVVYMTEPI [HSP90AB1_Y512]"
class = "Y"

[[record]]
sequencetext = "NNHGNYIVRLG [ETFDH_Y172]"
class = "N"

[[record]]
sequencetext = "IALSKYGRVKW [FGF6_Y186_R191W]"
class = "N"

[[record]]
sequencetext = "DDFNLYINVKL [MTHFD1_Y52_S49F]"
class = "N"

[[record]]
sequencetext = "ECKLLYSQKEG [PTPN11_Y263_R265Q]"
class = "N"

[[record]]
sequencetext = "GVASDYKCVDP [VPS13B_Y1991_I1994V]"
class = "N"

[[record]]
sequencetext = "ILDEAYVMAGA [ERBB2_Y772_V777A]"
class = "Y"

[[record]]
sequencetext = "VKKKLDEEIDQ [CYP17A1_Y329_Y329D]"
class = "N"

[[record]]
sequencetext = "EERNPYYSSAR [MCCC2_Y520_G517R]"
class = "Y"

[[record]]
sequencetext = "YKTPIYPYLLP [PLD2_Y578_T577I]"
class = "Y"

[[record]]
sequencetext = "PVDVAYRRGYF [PLEC_Y2967]"
class = "N"

[[record]]
sequencetext = "AHEALYLEADL [CENPF_Y1920_E1915A]"
class = "Y"

[[record]]
sequencetext = "GESLTYASTTF [C1orf162_Y120]"
class = "Y"

[[record]]
sequencetext = "NQILPYIKELV [PPP2R1B_Y341]"
class = "N"

[[record]]
sequencetext = "MRTMGYMPREM [CABP5_Y62_T65R]"
class = "N"

[[record]]
sequencetext = "GGCQEYTGAPY [NAXD_Y85]"
class = "N"

[[record]]
sequencetext = "IDDNQYAFLKA [HNF4A_Y286_E285Q_YF]"
class = "N"

[[record]]
sequencetext = "PRLMLYNPTTF [EGFR_Y270_P266R_YF]"
class = "Y"

[[record]]
sequencetext = "GIMEEYQLPFF [BMPR1A_Y453_V450M_YF]"
class = "Y"

[[record]]
sequencetext = "CTTIHYNNMCN [TP53_Y234_Y236N]"
class = "N"

[[record]]
sequencetext = "KASIMYPSNNC [CXCL11_Y52]"
class = "N"

[[record]]
sequencetext = "RRSQSYIPTSG [PLEKHA2_Y185]"
class = "Y"

[[record]]
sequencetext = "AFRHGYFDEEM [PLEC_Y2971_R2969H_YF]"
class = "N"

[[record]]
sequencetext = "LDLSFYPTSSS [EMD_Y182_YF]"
class = "N"

[[record]]
sequencetext = "KDQGTYEDFVE [MYL6_Y86_YF]"
class = "Y"

[[record]]
sequencetext = "SADIAYNYRHG [PAH_Y166_F161S]"
class = "N"

[[record]]
sequencetext = "PCPANYFAFKI [FAM3D_Y65]"
class = "Y"

